Data provenance is ChEMBL document CHEMBL2010758.

procedureDetails: Plasma concentration in NZW rabbit at 10 mg/kg, sc at 12 hrs
Format: ADME, organism-based, Oryctolagus cuniculus
Parameters: dose 10 mg/kg, route subcutaneous
reportedProperty: concentration at 12 h (nM)

> print(dat)
                                   compound       reportedproperty  testresult
1  CCC(NCCCC[C@@H](C[C@@H](OC)c1ccc(F)cc1)C(=O)NO)c1ccc(F)cc1 (mixture of isomers)  concentration at 12 h          79

* * *

Test system: Oryctolagus cuniculus
procedureDetails: Cmax in NZW rabbit at 10 mg/kg, sc
Type: ADME, organism-based
Set-up: dose 10 mg/kg, route subcutaneous
assayContext: in vivo
reportedProperty: Cmax (nM)

> print(dat)
                                   compound  reportedproperty  testresult
1  CCC(NCCCC[C@@H](C[C@@H](OC)c1ccc(F)cc1)C(=O)NO)c1ccc(F)cc1 (mixture of isomers)              Cmax        1300

* * *

pKi: −log10 of the molar value.
Here's what we have: pKi numbers for Matrix metalloproteinase-9 (Homo sapiens).
reportedProperty: pKi

> print(dat)
                                   compound                                targetdesc  reportedproperty  testresult
1  CCC(NCCCC[C@@H](Oc1cc(C)c(F)c(C)c1)C(=O)NO)c1ccc(F)cc1 (mixture of isomers)  Matrix metalloproteinase-9 (Homo sapiens)               pKi      < 4.30
2  CCC(NCCCC[C@@H](C[C@@H](OC)c1ccc(F)cc1)C(=O)NO)c1ccc(F)cc1 (mixture of isomers)  Matrix metalloproteinase-9 (Homo sapiens)               pKi        4.96
3  Cc1cc(O[C@H](CCCCNCc2ccc(F)cc2)C(=O)NO)cc(C)c1F  Matrix metalloproteinase-9 (Homo sapiens)               pKi      < 4.30
4  Cc1cc(C[C@H](CCCCNCc2ccc(F)cc2)C(=O)NO)cc(C)c1F  Matrix metalloproteinase-9 (Homo sapiens)               pKi      < 4.30
5  CO[C@H](C[C@H](CCCCNCc1ccc(F)cc1)C(=O)NO)c1ccc(F)cc1  Matrix metalloproteinase-9 (Homo sapiens)               pKi        4.68
6  Cc1cc(N[C@H](CCCCNCc2ccc(F)cc2)C(=O)NO)cc(C)c1F  Matrix metalloproteinase-9 (Homo sapiens)               pKi      < 4.30
7  CCC(NCCCC[C@@H](Nc1cc(C)c(F)c(C)c1)C(=O)NO)c1ccc(F)cc1 (mixture of isomers)  Matrix metalloproteinase-9 (Homo sapiens)               pKi      < 4.30
8  CCC(NCCCC[C@@H](Cc1cc(C)c(F)c(C)c1)C(=O)NO)c1ccc(F)cc1 (mixture of isomers)  Matrix metalloproteinase-9 (Homo sapiens)               pKi      < 4.30

* * *

targetDesc: Macrophage metalloelastase (Homo sapiens)
Sequence (P39900 whole entry): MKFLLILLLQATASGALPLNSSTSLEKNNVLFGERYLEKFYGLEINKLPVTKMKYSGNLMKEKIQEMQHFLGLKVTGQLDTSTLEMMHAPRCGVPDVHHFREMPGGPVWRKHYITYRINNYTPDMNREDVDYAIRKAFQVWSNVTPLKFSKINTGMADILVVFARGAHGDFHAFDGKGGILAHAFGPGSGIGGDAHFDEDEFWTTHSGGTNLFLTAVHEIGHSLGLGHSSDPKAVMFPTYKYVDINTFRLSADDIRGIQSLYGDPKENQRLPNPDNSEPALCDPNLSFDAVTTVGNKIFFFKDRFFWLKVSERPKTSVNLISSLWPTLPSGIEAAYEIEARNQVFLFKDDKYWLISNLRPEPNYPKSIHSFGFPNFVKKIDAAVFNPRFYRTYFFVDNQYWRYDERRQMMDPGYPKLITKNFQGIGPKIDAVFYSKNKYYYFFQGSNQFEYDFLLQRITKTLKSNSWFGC
procedureDetails: Inhibition of MMP-12 using OmniMMP as substrate
Quick list: Ki per entry.
reportedProperty: Ki

> print(dat)
                                   molecule  testresult
1  CCC(NCCCC[C@@H](Oc1cc(C)c(F)c(C)c1)C(=O)NO)c1ccc(F)cc1 (mixture of isomers)     > 50 µM
2  CCC(NCCCC[C@@H](Nc1cc(C)c(F)c(C)c1)C(=O)NO)c1ccc(F)cc1 (mixture of isomers)     > 50 µM
3  CCC(NCCCC[C@@H](C[C@@H](OC)c1ccc(F)cc1)C(=O)NO)c1ccc(F)cc1 (mixture of isomers)       12 µM

* * *

Entries and their measured CC50 follow.
Test system: RAW264.7
procedureDetails: Cytotoxicity against mouse RAW264.7 cells by MTT assay
Assay type: cell-based
reportedProperty: CC50 (µM)

> print(dat)
                                   compound  testresult
1  Cc1cc(N[C@H](CCCCNCc2ccc(F)cc2)C(=O)NO)cc(C)c1F          61
2  Cc1cc(O[C@H](CCCCNCc2ccc(F)cc2)C(=O)NO)cc(C)c1F          26
3  CCC(NCCCC[C@@H](Cc1cc(C)c(F)c(C)c1)C(=O)NO)c1ccc(F)cc1 (mixture of isomers)          15
4  CCC(NCCCC[C@@H](Oc1cc(C)c(F)c(C)c1)C(=O)NO)c1ccc(F)cc1 (mixture of isomers)          21

* * *

Below are Ki values recorded for Macrophage metalloelastase (Homo sapiens).
reportedProperty: Ki

> print(dat)
                                   molecule  testresult
1  Cc1cc(C[C@H](CCCCNCc2ccc(F)cc2)C(=O)NO)cc(C)c1F     > 50 µM
2  Cc1cc(O[C@H](CCCCNCc2ccc(F)cc2)C(=O)NO)cc(C)c1F     > 50 µM
3  Cc1cc(N[C@H](CCCCNCc2ccc(F)cc2)C(=O)NO)cc(C)c1F     > 50 µM
4  CCC(NCCCC[C@@H](Cc1cc(C)c(F)c(C)c1)C(=O)NO)c1ccc(F)cc1 (mixture of isomers)     > 50 µM
5  CO[C@H](C[C@H](CCCCNCc1ccc(F)cc1)C(=O)NO)c1ccc(F)cc1      2.3 µM

* * *

# key: entry, value: pKi
targetDesc: UniProtKB P15917
Sequence (P15917 whole entry): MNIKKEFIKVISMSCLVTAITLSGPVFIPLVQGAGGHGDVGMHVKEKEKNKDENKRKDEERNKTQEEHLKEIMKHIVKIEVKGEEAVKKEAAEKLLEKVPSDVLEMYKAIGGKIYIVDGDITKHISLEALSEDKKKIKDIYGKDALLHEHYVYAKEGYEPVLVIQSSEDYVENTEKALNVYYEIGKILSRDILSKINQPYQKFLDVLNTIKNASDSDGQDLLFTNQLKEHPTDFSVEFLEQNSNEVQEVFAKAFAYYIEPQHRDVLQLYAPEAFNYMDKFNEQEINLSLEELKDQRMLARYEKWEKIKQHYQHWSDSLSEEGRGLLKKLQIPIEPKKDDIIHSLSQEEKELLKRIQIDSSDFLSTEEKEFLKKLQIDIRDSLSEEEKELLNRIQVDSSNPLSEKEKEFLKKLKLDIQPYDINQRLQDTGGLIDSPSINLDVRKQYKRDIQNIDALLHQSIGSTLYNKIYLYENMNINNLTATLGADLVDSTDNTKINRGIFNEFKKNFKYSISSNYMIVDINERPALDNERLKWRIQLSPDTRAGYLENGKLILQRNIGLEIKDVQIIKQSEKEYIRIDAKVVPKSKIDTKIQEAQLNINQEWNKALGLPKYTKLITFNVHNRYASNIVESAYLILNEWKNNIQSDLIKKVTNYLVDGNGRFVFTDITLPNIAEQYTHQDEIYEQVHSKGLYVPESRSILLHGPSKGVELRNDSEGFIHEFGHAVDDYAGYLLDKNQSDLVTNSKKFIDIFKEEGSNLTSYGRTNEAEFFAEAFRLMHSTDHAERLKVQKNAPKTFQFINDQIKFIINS
pKi: −log10 of the molar value.
reportedProperty: pKi

> print(dat)
                                   molecule  reportedproperty  testresult
1  Cc1cc(C[C@H](CCCCN[C@H](Cc2ccccc2)c2ccc(F)cc2)C(=O)NO)cc(C)c1F               pKi        9.22
2  Cc1cc(C[C@H](CCCCN[C@H](C)c2ccc(F)cc2)C(=O)NO)cc(C)c1F               pKi        9.52
3  CCC(NCCCC[C@@H](C[C@@H](OC)c1ccc(F)cc1)C(=O)NO)c1ccc(F)cc1 (mixture of isomers)               pKi        9.57

* * *

Entries with reported pKi on Interstitial collagenase (Homo sapiens, UniProt P03956)
Sequence (P03956 whole entry): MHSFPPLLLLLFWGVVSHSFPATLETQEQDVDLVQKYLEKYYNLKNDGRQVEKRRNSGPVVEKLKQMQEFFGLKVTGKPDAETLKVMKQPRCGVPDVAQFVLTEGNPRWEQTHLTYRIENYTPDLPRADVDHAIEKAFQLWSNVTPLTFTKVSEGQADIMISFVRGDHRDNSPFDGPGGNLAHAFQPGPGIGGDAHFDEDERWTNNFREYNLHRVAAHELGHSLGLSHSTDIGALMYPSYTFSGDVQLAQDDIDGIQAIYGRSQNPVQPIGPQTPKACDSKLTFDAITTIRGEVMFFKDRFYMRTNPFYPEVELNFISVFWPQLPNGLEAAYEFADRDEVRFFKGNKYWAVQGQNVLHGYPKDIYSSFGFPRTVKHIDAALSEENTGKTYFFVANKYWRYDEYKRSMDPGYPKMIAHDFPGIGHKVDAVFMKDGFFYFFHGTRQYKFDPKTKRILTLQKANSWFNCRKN
pKi: −log10 of the molar value.
reportedProperty: pKi

> print(dat)
                                   compound                                targetdesc  reportedproperty  testresult
1  CCC(NCCCC[C@@H](Cc1cc(C)c(F)c(C)c1)C(=O)NO)c1ccc(F)cc1 (mixture of isomers)  Interstitial collagenase (Homo sapiens, UniProt P03956)               pKi      < 4.30
2  Cc1cc(C[C@H](CCCCNCc2ccc(F)cc2)C(=O)NO)cc(C)c1F  Interstitial collagenase (Homo sapiens, UniProt P03956)               pKi      < 4.30
3  Cc1cc(N[C@H](CCCCNCc2ccc(F)cc2)C(=O)NO)cc(C)c1F  Interstitial collagenase (Homo sapiens, UniProt P03956)               pKi      < 4.30
4  CO[C@H](C[C@H](CCCCNCc1ccc(F)cc1)C(=O)NO)c1ccc(F)cc1  Interstitial collagenase (Homo sapiens, UniProt P03956)               pKi        4.48
5  CCC(NCCCC[C@@H](Oc1cc(C)c(F)c(C)c1)C(=O)NO)c1ccc(F)cc1 (mixture of isomers)  Interstitial collagenase (Homo sapiens, UniProt P03956)               pKi      < 4.30
6  CCC(NCCCC[C@@H](C[C@@H](OC)c1ccc(F)cc1)C(=O)NO)c1ccc(F)cc1 (mixture of isomers)  Interstitial collagenase (Homo sapiens, UniProt P03956)               pKi        4.33
7  CCC(NCCCC[C@@H](Nc1cc(C)c(F)c(C)c1)C(=O)NO)c1ccc(F)cc1 (mixture of isomers)  Interstitial collagenase (Homo sapiens, UniProt P03956)               pKi      < 4.30
8  Cc1cc(O[C@H](CCCCNCc2ccc(F)cc2)C(=O)NO)cc(C)c1F  Interstitial collagenase (Homo sapiens, UniProt P03956)               pKi      < 4.30
